Protein target, amino acids: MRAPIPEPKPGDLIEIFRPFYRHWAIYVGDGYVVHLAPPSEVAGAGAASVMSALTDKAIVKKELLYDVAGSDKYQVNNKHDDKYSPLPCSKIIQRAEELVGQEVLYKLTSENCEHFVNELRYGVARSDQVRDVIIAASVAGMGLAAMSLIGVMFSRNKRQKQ
Would you mind telling me the reported IC50 of each entry?

Exam item: Quickly give me recorded IC50 for COc1ccccc1N(C=O)C(C)C(=O)C(=O)NCc1cccnc1 (centres unmarked)
Marked response: < 1 µM

Exam item: Look up and state reported IC50 for CCCC(NC(=O)CN(C)C)C(=O)C(=O)NCC1CCCCC1 (centres unmarked)
Marked response: < 1 µM

Exam item: Complete the entry with IC50 for CC(=O)NCCOCCOCCNC(=O)C(=O)C1CCC(=O)N1Cc1ccc(Cl)cc1 (centres unmarked)
Marked response: 1 to 10 µM

Exam item: Read the entry CC(C)CC(C(=O)C(=O)NCC1CC1)N(C=O)C[C@@H]1CCOC1 (some centres unmarked) and write its reported IC50.
Marked response: < 1 µM

Exam item: Provide measured IC50 value, entry: CC(C(=O)C(=O)NCC1CCCCC1)N(C=O)CC1CC1 (centres unmarked)
Marked response: < 1 µM

Exam item: Determine its reported IC50: COC(=O)CNC(=O)C(=O)C(C)N(C=O)Cc1ccccc1 (centres unmarked)
Marked response: < 1 µM

Exam item: Provide measured IC50 value, entry: O=CN(Cc1ccccc1)C(C(=O)C(=O)NCC1CC1)C1CC1 (centres unmarked)
Marked response: < 1 µM

Exam item: For COC(=O)N(CC1CCOCC1)C(C)C(=O)C(=O)NCC(C)C (centres unmarked) , write its IC50.
Marked response: 1 to 10 µM

Exam item: Give the reported value of IC50 for this record: `CCCNC(=O)C(=O)[C@H]1CCC(=O)N1Cc1ccccc1`
Marked response: < 1 µM

Exam item: Indicate its recorded IC50; the molecule in question is CCC(NC(=O)c1cnccc1C)C(=O)C(=O)NCC1CCCCC1 (centres unmarked)
Marked response: < 1 µM

Exam item: Tell us which IC50 value is on record for CC(C(=O)C(=O)NCC1CC1)N(CC1CCOCC1)S(C)(=O)=O (centres unmarked)
Marked response: 10 to 50 µM

Exam item: Indicate its recorded IC50; the molecule in question is `CC(C)(C#N)CNC(=O)C(=O)[C@H]1CCC(=O)N1Cc1ccccc1`
Marked response: < 1 µM

Exam item: Give the reported IC50 for this molecule. C[C@H]1CC(=O)N(Cc2ccccc2)[C@H]1C(=O)C(=O)NC1CC1 (single isomer, unassigned)
Marked response: < 1 µM

Exam item: Return the recorded IC50 value; entry: O=C(NC1CC1)C(=O)C1CCC(=O)N1Cc1ccccc1 (centres unmarked)
Marked response: < 1 µM

* * *

System: picornaviruses (CVB1, HRV-A2, HRV-A23, EV-68)
assay.method.text: Anti-picornavirus cytopathic effect (CPE) reduction assay on HeLa H1 cells
Format: cell-based
settings: Enterovirus B, HeLa H1, 48 h, HeLa H1 cells, 48 h, category from averaging the EC50 values from four picornaviruses (CVB1, HRV-A2, HRV-A23, EV68); read-out: EC50 values of the compounds determined in the anti-picornavirus assay
Assignment: determine reported EC50 for the given molecules.

Exam item: Look up and report measured EC50 for this entry: CCCC(NC(=O)CN(C)C)C(=O)C(=O)NCC1CCCCC1 (stereo not drawn) [FP 207]
Marked response: 1 to 10 µM

Exam item: Respond only with EC50 recorded for O=C(NC1CC1)C(=O)[C@H]1CCC(=O)N1Cc1ccc(Cl)cc1 [FP 284]
Marked response: < 1 µM

Exam item: Look up and report measured EC50 for this entry: Cc1ccc(C(=O)NC(C)C(=O)C(=O)NCC2CC2)cc1 (stereo not drawn) [FP 159]
Marked response: > 10 µM

Exam item: Specify reported EC50 for the molecule shown: O=C(NC1CN(S(=O)(=O)C2CCCC2)C1)C(=O)[C@H]1CCC(=O)N1Cc1ccccc1 [FP 322]
Marked response: < 1 µM

Exam item: # return recorded EC50 for input CC(C(=O)C(=O)NCCOC1CCCCC1)N(C=O)C1CCCCC1 (stereo not drawn) [FP 55]
Marked response: < 1 µM

Exam item: Given CC(NS(=O)(=O)c1ccccc1Cl)C(=O)C(=O)NCC1CC1 (stereo not drawn) [FP 191] , respond with its EC50.
Marked response: 1 to 10 µM

Exam item: Output measured EC50 for this item: CC(C)CNC(=O)C(=O)C(C)N(C=O)C1CCCCC1 (stereo not drawn) [FP 15]
Marked response: < 1 µM

Exam item: Fill in EC50 for record O=CN(Cc1ccccc1)[C@@H](Cc1c[nH]cn1)C(=O)C(=O)NCC1CC1 [FP 119]
Marked response: > 10 µM

Exam item: Return the recorded EC50 value; entry: C[C@@H]1C[C@H]1NC(=O)C(=O)[C@H]1CCC(=O)N1Cc1ccccc1 [FP 271]
Marked response: < 1 µM

Exam item: Name the recorded EC50 of the molecule listed here: CC(C)(O)CNC(=O)C(=O)C1CCC(=O)N1Cc1ccc(Cl)cc1 (stereo not drawn) [FP 274]
Marked response: 1 to 10 µM

Exam item: For the molecule Cc1ccccc1C(=O)N[C@H](C)C(=O)C(=O)NCC1CC1 (single isomer, unassigned) [FP 158] , report EC50.
Marked response: 1 to 10 µM

Exam item: Write down EC50 measured for item CC(C)[C@H]1CC(=O)N(Cc2ccccc2)[C@@H]1C(=O)C(=O)NC1CC1 (racemic) [FP 342]
Marked response: < 1 µM
